Test: Plasma pharmacokinetic study, 10 mg/kg SQ, population model
Assay type: in vivo, CD-1 nude mice bearing G3MB
Conditions: female, CD-1 nude, mouse, plasma, subcutaneous, 10 mg/kg

| SMILES | UNIT LABEL | half-life |
| --- | --- | --- |
| COc1cccc(OCCCN)c1-c1cc(Nc2cnc(C#N)cn2)n[nH]1 | h | 4.5 |

----------
Assay: Plasma protein binding by equilibrium dialysis
Assay type: in vitro ADME, mouse
Details: CD-1, mouse, plasma
READOUT KIND: fraction unbound at 24 h

| SMILES | TEST VALUE |
| --- | --- |
| COc1cccc(OCCCN)c1-c1cc(Nc2cnc(C#N)cn2)n[nH]1 | 0.11 |

----------
Experiment: Plasma pharmacokinetic study, 10 mg/kg SQ, population model
Format: in vivo, CD-1 nude mice bearing G3MB
Conditions: female, CD-1 nude, mouse, plasma, subcutaneous, 10 mg/kg, Model-derived AUCplasma, 0−∞, range, 10 mg/kg SQ, total plasma

| MOLECULE | AUC |
| --- | --- |
| COc1cccc(OCCCN)c1-c1cc(Nc2cnc(C#N)cn2)n[nH]1 [prexasertib] | 1460 to 2880 ng·h/mL |
